readout_name: melting point

Consider the worked cases shown below.
| compound | readout_name | measurement |
| --- | --- | --- |
| Cc1nc(C(C)C)c(Cc2cccc3c2oc2ccccc23)c(O)c1C [7-30] | melting point | 300 °C |
| Cc1nc(C(C)C)c(Cc2ccc3sc(C(F)(F)F)nc3c2)c(O)c1C [7-19] | melting point | 273 to 274 °C |
| COC(=O)Oc1c(C)c(C)nc(C(C)C)c1Cc1ccc2ncccc2c1 [7-22] | melting point | 127 to 128 °C |
| COc1c(C)c(C)nc(C(C)C)c1Cc1ccc(NC(=O)CC(C)(C)C)cc1 [7-51] | melting point | 154 to 155 °C |
| COC(=O)Oc1c(C)c(C)cc(C(C)C)c1Cc1ccc(-c2ccc(C(C)=NOC3CCC(C(F)(F)F)CC3)cc2)cc1 (stereo not shown) [7-53] | melting point | 58 to 59 °C |

Provide one value: measured melting point of Cc1nc(C(C)C)c(Cc2ccc(-c3ccc(OC(F)(F)F)cc3)s2)c(O)c1C [7-8]
250 °C

Please give measured melting point of the following entry: CC(=O)Oc1c(C)c(C)nc(C)c1Cc1cc(-c2ccc(C(F)(F)F)cc2)on1 [7-6]
170 to 173 °C

Fill in reported melting point for this entry: COc1c(C)c(C)nc(C(C)C)c1Cc1ccc(C2CCC3(CC2)OCCO3)cc1 [7-42]
107 to 108 °C

In one line, give reported melting point of the entry Cc1nc(C(C)C)c(Cc2cccc3c2CCC3c2ccc(F)cc2)c(O)c1C (stereo not shown) [7-17] .
296 to 298 °C

Annotate the compound COC(=O)Oc1c(C)c(C)nc(C(C)C)c1Cc1ccc(C(=O)NC(=O)C2CCC(C)CC2)cc1 (stereo not shown) [7-47] with its measured melting point.
169 to 171 °C

Supply recorded melting point for Cc1nc(C(C)C)c(Cc2ccc3ncccc3c2)c(O)c1C [7-21] here.
254 to 256 °C

For the compound COC(=O)Oc1c(C)c(C)nc(C(C)C)c1Cc1ccc2ccc(C(F)(F)F)nc2c1 [7-27] , give its measured melting point value.
125 to 126 °C

Determine its reported melting point: Cc1nc(C)c(Cc2cc(-c3ccc(C(F)(F)F)cc3)on2)c(OCc2ccccc2)c1C [7-4]
118 to 121 °C

Input Cc1nc(C(C)C)c(Cc2ccc3c(c2)C(c2ccc(F)cc2)CC3)c(O)c1C (stereo not shown) [7-28] , output reported melting point.
221 to 224 °C

Annotate the compound Cc1nc(C(C)C)c(Cc2ccc3cc(C(F)(F)F)ccc3c2)c(O)c1C [7-24] with its measured melting point.
268 to 269 °C

Tell me measured melting point for Cc1nc(C(C)C)c(Cc2ccc3sc4ccccc4c3c2)c(O)c1C [7-32] please.
300 °C

Input Cc1nc(C(C)C)c(Cc2ccc3c(c2)CCC3c2ccc(F)cc2)c(O)c1C (stereo not shown) [7-15] , output reported melting point.
260 to 262 °C

Return the recorded melting point value; entry: COC(=O)Oc1c(C)c(C)nc(C(C)C)c1Cc1cccc2c1oc1ccccc12 [7-31]
114 to 116 °C

Retrieve melting point measured for Cc1nc(C(C)C)c(Cc2ccc3ccccc3c2)c(O)c1C [7-11] and print it.
268 to 270 °C
